Values compiled from ChEMBL document CHEMBL1124756.

Molecular target: Angiotensin II receptor (Rattus norvegicus, UniProt P29089+P25095+P35351)
Sequence (P29089 whole entry): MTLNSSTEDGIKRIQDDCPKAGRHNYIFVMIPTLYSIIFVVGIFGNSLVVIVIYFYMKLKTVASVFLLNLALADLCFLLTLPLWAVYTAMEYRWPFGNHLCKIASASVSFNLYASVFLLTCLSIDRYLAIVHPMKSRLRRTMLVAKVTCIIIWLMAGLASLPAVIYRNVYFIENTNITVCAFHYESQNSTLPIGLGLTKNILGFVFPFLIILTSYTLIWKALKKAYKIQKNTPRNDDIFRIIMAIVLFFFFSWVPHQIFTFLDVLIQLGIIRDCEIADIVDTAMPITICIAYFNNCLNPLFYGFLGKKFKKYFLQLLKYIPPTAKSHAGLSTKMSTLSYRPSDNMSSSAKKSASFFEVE
Sequence (P25095 whole entry): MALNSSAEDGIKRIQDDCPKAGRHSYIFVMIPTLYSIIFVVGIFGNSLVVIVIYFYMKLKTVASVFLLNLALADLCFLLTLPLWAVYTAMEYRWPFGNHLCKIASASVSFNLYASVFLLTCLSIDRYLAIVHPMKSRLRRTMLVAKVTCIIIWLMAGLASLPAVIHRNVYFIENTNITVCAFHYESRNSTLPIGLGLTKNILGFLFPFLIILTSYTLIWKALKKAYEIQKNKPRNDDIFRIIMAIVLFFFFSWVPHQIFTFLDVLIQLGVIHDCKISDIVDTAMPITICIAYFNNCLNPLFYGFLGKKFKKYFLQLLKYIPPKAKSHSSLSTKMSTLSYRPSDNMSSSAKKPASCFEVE
Sequence (P35351 whole entry): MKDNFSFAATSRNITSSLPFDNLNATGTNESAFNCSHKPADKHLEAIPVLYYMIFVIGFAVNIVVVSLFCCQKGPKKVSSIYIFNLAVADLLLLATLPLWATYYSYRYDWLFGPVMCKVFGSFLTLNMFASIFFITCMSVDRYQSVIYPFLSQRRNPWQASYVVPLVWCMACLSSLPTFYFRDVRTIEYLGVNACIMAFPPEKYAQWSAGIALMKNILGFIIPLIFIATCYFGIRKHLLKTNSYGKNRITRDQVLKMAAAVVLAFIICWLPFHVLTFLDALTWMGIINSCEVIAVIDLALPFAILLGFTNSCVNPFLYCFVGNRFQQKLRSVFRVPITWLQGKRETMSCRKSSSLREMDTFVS
Test: Inhibitory concentration that gave 50 percent displacement of specific binding of [3H]AII (2 nM) to Angiotensin II receptor
Format: protein assay
READOUT_NAME: IC50 (µM)

Worked cases, IC50 given:
CCCCc1nc(Cl)c(CC(=O)OC)n1Cc1ccc(NC(=O)c2cc(Cl)ccc2NS(=O)(=O)C(F)(F)F)cc1 : 5.9
CCCCc1nc(Cl)c(COC)n1Cc1ccc(C(=O)Nc2cccc(C)c2C(=O)O)cc1 : 0.5

[P] CCCCc1nc(Cl)c(CC(=O)OC)n1Cc1ccc(NC(=O)C2CCCCC2NS(=O)(=O)C(F)(F)F)cc1 (stereo in doubt; 50)
[Q] CCCCc1nc(Cl)c(CC(=O)OC)n1Cc1ccc(NS(=O)(=O)C(F)(F)F)cc1
IC50 comparison. Which is larger, P or Q ? To answer, give the label that identifies your chosen option.
P
(P: 3.9 µM, Q: 2.1 µM)

[I] CCCCc1nc(Cl)c(COC)n1Cc1ccc(C(=O)N[C@@H](Cc2ccccc2)C(=O)O)cc1
[II] CCCCc1nc(Cl)c(CC(=O)OC)n1Cc1ccc(NC(=O)c2cc(C)ccc2NS(=O)(=O)C(F)(F)F)cc1
[III] CCCCc1nc(Cl)c(COC)n1Cc1ccc(C(=O)N[C@H](Cc2ccccc2)C(=O)O)cc1
List the 3 entries from lowest IC50 to highest IC50 value. // format: requested-order list of labels
II, III, I
